- methodNotes: Dissociation constant, pKa of the compound at 25 to 50 uM by UV spectroscopy
- Format: physicochemical
resultType: pKa at up to 50 µM
Answer using only a numeral; do not append any unit.

Before answering, review these 4 worked examples.
{"columns": ["compound", "pKa at up to 50 µM"],
 "data": [
  ["COC(=O)[C@H](Cc1ccccc1)NC(=O)c1c(C)[nH]c(/C=C2\\C(=O)Nc3ccc(C(=O)O)cc32)c1C", 4.61],
  ["Cc1[nH]c(/C=C2\\C(=O)Nc3ccccc32)c(C)c1CCC(=O)O [ORANTINIB]", 4.1],
  ["COC(=O)c1ccc2c(c1)/C(=C/c1[nH]c(C)c(C(=O)N[C@@H](Cc3ccccc3)C(=O)O)c1C)C(=O)N2", 3],
  ["COC(=O)[C@@H](Cc1ccccc1)NC(=O)c1ccc2c(c1)/C(=C/c1[nH]c(C)c(C(=O)N[C@@H](Cc3ccccc3)C(=O)O)c1C)C(=O)N2", 3]
]}

query: Identify the reported pKa at up to 50 µM for the following entry. COC(=O)CC[C@@H](NC(=O)c1ccc2c(c1)/C(=C/c1[nH]c(C)c(C(=O)O)c1C)C(=O)N2)C(=O)OC
result: 5.47

query: Identify the reported pKa at up to 50 µM for the following entry. Cc1[nH]c(/C=C2\C(=O)Nc3ccc(C(=O)N[C@H](Cc4ccccc4)C(=O)O)cc32)c(C)c1C(=O)N[C@@H](Cc1ccccc1)C(=O)O
result: 3

query: Identify the reported pKa at up to 50 µM for the following entry. COC(=O)CC[C@H](NC(=O)c1c(C)[nH]c(/C=C2\C(=O)Nc3ccc(C(=O)N[C@H](Cc4ccccc4)C(=O)O)cc32)c1C)C(=O)OC
result: 3.01

query: Identify the reported pKa at up to 50 µM for the following entry. COC(=O)CC[C@H](NC(=O)c1ccc2c(c1)/C(=C/c1[nH]c(C)c(C(=O)N[C@@H](Cc3ccccc3)C(=O)O)c1C)C(=O)N2)C(=O)OC
result: 3.04

Origin of measurements: ChEMBL document CHEMBL4190404
